# SYSTEM_UNDER_TEST: UniProt:P00533
# Sequence (P00533 25-1210): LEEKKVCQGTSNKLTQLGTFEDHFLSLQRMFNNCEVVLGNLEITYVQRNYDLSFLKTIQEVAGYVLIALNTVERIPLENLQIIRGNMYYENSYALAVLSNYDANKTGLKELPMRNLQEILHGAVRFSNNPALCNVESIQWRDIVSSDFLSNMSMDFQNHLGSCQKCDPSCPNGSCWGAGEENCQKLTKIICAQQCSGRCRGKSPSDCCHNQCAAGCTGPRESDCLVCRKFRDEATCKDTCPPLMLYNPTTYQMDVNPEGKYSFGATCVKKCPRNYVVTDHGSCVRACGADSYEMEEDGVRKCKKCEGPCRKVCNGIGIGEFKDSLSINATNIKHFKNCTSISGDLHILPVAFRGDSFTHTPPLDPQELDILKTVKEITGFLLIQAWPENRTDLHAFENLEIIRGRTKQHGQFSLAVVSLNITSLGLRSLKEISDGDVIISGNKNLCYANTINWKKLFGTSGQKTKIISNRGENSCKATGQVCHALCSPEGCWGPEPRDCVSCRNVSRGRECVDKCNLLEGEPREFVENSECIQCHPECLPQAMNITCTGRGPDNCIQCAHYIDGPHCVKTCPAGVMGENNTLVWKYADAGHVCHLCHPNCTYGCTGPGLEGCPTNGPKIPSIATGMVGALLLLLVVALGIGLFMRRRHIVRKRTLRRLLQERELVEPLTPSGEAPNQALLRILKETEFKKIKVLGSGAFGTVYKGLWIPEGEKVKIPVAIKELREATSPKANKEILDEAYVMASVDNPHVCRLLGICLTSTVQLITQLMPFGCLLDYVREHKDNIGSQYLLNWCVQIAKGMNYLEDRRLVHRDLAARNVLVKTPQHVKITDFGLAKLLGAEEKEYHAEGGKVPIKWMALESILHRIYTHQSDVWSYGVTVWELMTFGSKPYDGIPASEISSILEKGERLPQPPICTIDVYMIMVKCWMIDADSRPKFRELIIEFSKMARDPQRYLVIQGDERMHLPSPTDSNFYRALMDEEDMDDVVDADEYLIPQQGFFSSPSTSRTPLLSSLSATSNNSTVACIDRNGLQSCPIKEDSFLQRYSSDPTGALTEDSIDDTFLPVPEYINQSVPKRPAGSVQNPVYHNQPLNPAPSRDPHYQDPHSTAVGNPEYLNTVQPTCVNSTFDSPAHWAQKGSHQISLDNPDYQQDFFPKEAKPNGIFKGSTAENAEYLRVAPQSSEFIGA
# EXPERIMENT_DESCRIPTION: ADP-Glo kinase assay, EGFR
# Type: biochemical
# Design: purchased BPS Bioscience (assay run externally by the vendor)
# CONDITION_DESCRIPTION: 10 µM ATP/0.2 mg/ml Poly-Glu-Tyr; read-out: EGFR IC50 (dose-response curve, supplement)
Give pIC50 for every item shown.
Answers are plain numbers, as −log10 of the molar value.

The following molecules have reported results that may help.
MOLECULE: Clc1cccc(Nc2ncnc3[nH]ccc23)c1 [Compound 11]
SYSTEM_UNDER_TEST: UniProt:P00533
pIC50: 8.19
//
MOLECULE: Cc1ccccc1Nc1ncnc2[nH]ccc12 [Compound 15]
SYSTEM_UNDER_TEST: UniProt:P00533
pIC50: 5.92

Ask | Please give the measured pIC50 for this molecule: Clc1ccc(Nc2ncnc3[nH]ccc23)cc1Br [Compound 7]
Reply | 8.44

Source listed as paper PMC6009956.
